The reader will find reported Bliss excess values listed item by item below.
System: ESS-1 (Other Solid Carcinomas)
Experiment: Bliss excess, mean over the matrix (fraction); higher = more synergy
READOUT: Bliss excess

[
  {
    "COMPOUND": "CS(=O)(=O)CCNCc1ccc(-c2ccc3ncnc(Nc4ccc(OCc5cccc(F)c5)c(Cl)c4)c3c2)o1 [Lapatinib] + C[C@@H](Oc1cc(-c2cnn(C3CCNCC3)c2)cnc1N)c1c(Cl)ccc(F)c1Cl [Crizotinib] (first compound max 10 µM, 7x7, partner max 10 µM)",
    "MEASURED_TARGET": "ESS-1 (Other Solid Carcinomas)",
    "VALUE_MEASURED": -0.0637
  },
  {
    "COMPOUND": "N#Cc1cnc(Nc2cc(NC[C@H]3CNCCO3)c(C(F)(F)F)cn2)cn1 [SRA737] + C=CCn1c(=O)c2cnc(Nc3ccc(N4CCN(C)CC4)cc3)nc2n1-c1cccc(C(C)(C)O)n1 [AZD1775] (first compound max 10 µM, partner max 1 µM)",
    "MEASURED_TARGET": "ESS-1 (Other Solid Carcinomas)",
    "VALUE_MEASURED": 0.12
  },
  {
    "COMPOUND": "COc1cc2ncnc(Nc3ccc(F)c(Cl)c3)c2cc1OCCCN1CCOCC1 [Gefitinib] + CC(C)n1c(=O)n(C)c2cnc3cc(F)c(-c4ccc(OCCCN5CCCCC5)nc4)cc3c21 [AZD1390] (first compound max 10 µM, 7x7, partner max 0.3 µM)",
    "MEASURED_TARGET": "ESS-1 (Other Solid Carcinomas)",
    "VALUE_MEASURED": -0.0518
  },
  {
    "COMPOUND": "Cc1c2c(nn1C)CSCc1cc(n(C)n1)CSc1cc(c3ccccc3c1)OCCCc1c(C(=O)O)n(C)c3c-2c(Cl)ccc13 [AZD5991] + CCN(CCO)CCCOc1ccc2c(Nc3cc(CC(=O)Nc4cccc(F)c4)[nH]n3)ncnc2c1 [AZD2811] (first compound max 1 µM, 7x7, partner max 1 µM)",
    "MEASURED_TARGET": "ESS-1 (Other Solid Carcinomas)",
    "VALUE_MEASURED": -0.0014
  },
  {
    "COMPOUND": "CC1(C)CCC(CN2CCN(c3ccc(C(=O)NS(=O)(=O)c4ccc(NCC5CCOCC5)c([N+](=O)[O-])c4)c(Oc4cnc5[nH]ccc5c4)c3)CC2)=C(c2ccc(Cl)cc2)C1 [Venetoclax] + CCN(CCO)CCCOc1ccc2c(Nc3cc(CC(=O)Nc4cccc(F)c4)[nH]n3)ncnc2c1 [AZD2811] (first compound max 1 µM, 7x7, partner max 1 µM)",
    "MEASURED_TARGET": "ESS-1 (Other Solid Carcinomas)",
    "VALUE_MEASURED": 0.0506
  },
  {
    "COMPOUND": "Cn1cnc2c(F)c(Nc3ccc(Br)cc3Cl)c(C(=O)NOCCO)cc21 [Selumetinib] + CC(C)n1c(=O)n(C)c2cnc3cc(F)c(-c4ccc(OCCCN5CCCCC5)nc4)cc3c21 [AZD1390] (first compound max 10 µM, 7x7, partner max 0.3 µM)",
    "MEASURED_TARGET": "ESS-1 (Other Solid Carcinomas)",
    "VALUE_MEASURED": -0.0044
  },
  {
    "COMPOUND": "COc1nnc2ccc(N3CCC(c4ccc(OCCN5CCN(C)C(=O)[C@H]5C)cc4)CC3)nn12 [AZD5153] + Cn1cnc2c(F)c(Nc3ccc(Br)cc3Cl)c(C(=O)NOCCO)cc21 [Selumetinib] (first compound max 1 µM, 7x7, partner max 10 µM)",
    "MEASURED_TARGET": "ESS-1 (Other Solid Carcinomas)",
    "VALUE_MEASURED": -0.0065
  }
]

----------
System: FTC-133 (Thyroid Gland Carcinoma)
Assay: combination Emax (second highest fraction inhibited in the dose matrix, 72 h); higher = more inhibition; extreme values may be limits of the assay
READOUT: combination Emax

[
  {
    "COMPOUND": "CN(C)CCCOc1ccc(-c2ccc3ncc4c(c3c2)n(C2CCOCC2)c(=O)n4C)cn1 [AZD0156] + C[C@@H]1COCCN1C2=NC(=NC(=C2)C3(CC3)[S@](=N)(=O)C)C4=C5C=CNC5=NC=C4 [AZD6738] (first compound max 1 µM, 7x7, partner max 10 µM)",
    "MEASURED_TARGET": "FTC-133 (Thyroid Gland Carcinoma)",
    "VALUE_MEASURED": 0.666
  },
  {
    "COMPOUND": "COc1nnc2ccc(N3CCC(c4ccc(OCCN5CCN(C)C(=O)[C@H]5C)cc4)CC3)nn12 [AZD5153] + C=CCn1c(=O)c2cnc(Nc3ccc(N4CCN(C)CC4)cc3)nc2n1-c1cccc(C(C)(C)O)n1 [AZD1775] (first compound max 1 µM, partner max 1 µM)",
    "MEASURED_TARGET": "FTC-133 (Thyroid Gland Carcinoma)",
    "VALUE_MEASURED": 0.837
  },
  {
    "COMPOUND": "CCc1c2c(nc3ccc(O)cc13)-c1cc3c(c(=O)n1C2)COC(=O)[C@]3(O)CC [SN-38] + CN(C)CCCOc1ccc(-c2ccc3ncc4c(c3c2)n(C2CCOCC2)c(=O)n4C)cn1 [AZD0156] (first compound max 0.3 µM, 7x7, partner max 1 µM)",
    "MEASURED_TARGET": "FTC-133 (Thyroid Gland Carcinoma)",
    "VALUE_MEASURED": 0.959
  },
  {
    "COMPOUND": "COc1nnc2ccc(N3CCC(c4ccc(OCCN5CCN(C)C(=O)[C@H]5C)cc4)CC3)nn12 [AZD5153] + CCN(CCO)CCCOc1ccc2c(Nc3cc(CC(=O)Nc4cccc(F)c4)[nH]n3)ncnc2c1 [AZD2811] (first compound max 1 µM, 7x7, partner max 1 µM)",
    "MEASURED_TARGET": "FTC-133 (Thyroid Gland Carcinoma)",
    "VALUE_MEASURED": 0.678
  }
]

----------
Test system: CAL-33 (Oral Cavity Carcinoma)
Assay: Bliss excess, mean over the matrix (fraction); higher = more synergy

[
  {
    "MOLECULE": "C[C@@H](c1ccc2nccn2c1)n1nnc2ncc(-c3cnn(C)c3)nc21 [Savolitinib] + CN(CC[C@H](CSC1=CC=CC=C1)NC2=C(C=C(C=C2)S(=O)(=O)NC(=O)C3=CC=C(C=C3)N4CCC(CC4)[C@H](C5=CC=CC=C5C6=CC=C(C=C6)Cl)O)S(=O)(=O)C(F)(F)F)CCO [AZD4320] (first compound max 1 µM, 7x7, partner max 1 µM)",
    "Bliss excess": -0.0104
  },
  {
    "MOLECULE": "COc1cccc(OCCCN)c1-c1cc(Nc2cnc(C#N)cn2)n[nH]1 [Prexasertib] + O=C(c1cc(Cc2n[nH]c(=O)c3ccccc23)ccc1F)N1CCN(C(=O)C2CC2)CC1 [Olaparib] (first compound max 1 µM, 7x7, partner max 10 µM)",
    "Bliss excess": -0.012
  },
  {
    "MOLECULE": "CC1(C)CCC(CN2CCN(c3ccc(C(=O)NS(=O)(=O)c4ccc(NCC5CCOCC5)c([N+](=O)[O-])c4)c(Oc4cnc5[nH]ccc5c4)c3)CC2)=C(c2ccc(Cl)cc2)C1 [Venetoclax] + C[C@@H](Nc1cc(F)cc(F)c1)c1cc(C(=O)N(C)C)cc2c(=O)cc(N3CCOCC3)oc12 [AZD8186] (first compound max 1 µM, 7x7, partner max 3 µM)",
    "Bliss excess": -0.0241
  }
]

----------
The reader will find reported combination Emax values listed item by item below.
Test system: L-428 (Hodgkin's Lymphoma)
Assay: combination Emax (second highest fraction inhibited in the dose matrix, 72 h); higher = more inhibition; extreme values may be limits of the assay

[
  {
    "MOLECULE": "Cc1cc2ncnn2cc1Nc1ncc2c(n1)n(C1CCOCC1)c(=O)n2C [AZD7648] + C[C@@H]1COCCN1C2=NC(=NC(=C2)C3(CC3)[S@](=N)(=O)C)C4=C5C=CNC5=NC=C4 [AZD6738] (first compound max 10 µM, 7x7, partner max 10 µM)",
    "combination Emax": 0.794
  },
  {
    "MOLECULE": "Cn1cnc2c(F)c(Nc3ccc(Br)cc3Cl)c(C(=O)NOCCO)cc21 [Selumetinib] + CC(C)n1c(=O)n(C)c2cnc3cc(F)c(-c4ccc(OCCCN5CCCCC5)nc4)cc3c21 [AZD1390] (first compound max 10 µM, 7x7, partner max 0.3 µM)",
    "combination Emax": 0.0975
  },
  {
    "MOLECULE": "Cc1c2c(nn1C)CSCc1cc(n(C)n1)CSc1cc(c3ccccc3c1)OCCCc1c(C(=O)O)n(C)c3c-2c(Cl)ccc13 [AZD5991] + C[C@@H]1COCCN1C2=NC(=NC(=C2)C3(CC3)[S@](=N)(=O)C)C4=C5C=CNC5=NC=C4 [AZD6738] (first compound max 1 µM, 7x7, partner max 10 µM)",
    "combination Emax": 0.808
  },
  {
    "MOLECULE": "CC1(C)CCC(CN2CCN(c3ccc(C(=O)NS(=O)(=O)c4ccc(NCC5CCOCC5)c([N+](=O)[O-])c4)c(Oc4cnc5[nH]ccc5c4)c3)CC2)=C(c2ccc(Cl)cc2)C1 [Venetoclax] + Cn1cnc2c(F)c(Nc3ccc(Br)cc3Cl)c(C(=O)NOCCO)cc21 [Selumetinib] (first compound max 1 µM, 7x7, partner max 3 µM)",
    "combination Emax": 0.137
  }
]
